Recorded koff, one value per entry.
- study system: recombinant human KLK5 (human) (UniProt Q9Y337)
- Sequence (Q9Y337 67-293): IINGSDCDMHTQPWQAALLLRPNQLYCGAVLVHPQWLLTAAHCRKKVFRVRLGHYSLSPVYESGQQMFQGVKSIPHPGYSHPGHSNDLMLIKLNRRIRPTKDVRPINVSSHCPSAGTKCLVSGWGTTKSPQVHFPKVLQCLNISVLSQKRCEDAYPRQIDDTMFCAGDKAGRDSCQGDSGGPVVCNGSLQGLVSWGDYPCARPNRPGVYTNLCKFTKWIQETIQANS
- assay name: array SPR imaging (IBIS MX96), antibody amine-coupled, human KLK5 injected 0-300 nM, 25 C
Express it in s⁻¹; write the number only.

Previously resolved entries follow.
# lookup: koff of 9F2 (antibody, V domains shown) VH: QSVKESEGGLFKPTDNLTLTCTVSGFSLSSYGVSWVRQAPGNGLEYIGFIGSGGSPYYASWAKSRSTITRNTNLNTVTLKMTSLTAADTATYFCARDDVGGGKSLDIWGPGTLVTVSS VL: NIVMTQTPASVEVAVGGTVIIKCQASQSISNYLSWYHQKSGQRPRLLIYSASTLASGVPSRFKGSGSGTQFTLTISDLECADAATYYCHQDYTSNSVDNTFGGGTEVVVK
0.000339

Can you share its koff? I mean this binder: 8B7 (antibody, V domains shown) VH: QSVKESEGGLFKPTDNLTLTCTVSGFSLSNYGVTWVRQAPGNGLEYIGFIGSSGSAYYASWAKSRSTITRNTNLNTVTLKMTSLTAADTATYFCARDDVGGGKSLDIWGPGTLVTVSS VL: NIVMTQTPASVEVAVGGTVTIKCQASQSIGSYLSWYQQKPGQPPKLLIYDASNLASGVPSRFKGSGSGTQFTLSISDLECADAATYYCHQDYTSNNVDNTFGGGTEVVIK
0.000547

Please look up its koff: 10C8 (antibody, V domains shown) VH: QSVKESEGGLFKPTDNLTLTCTVSGFSLSSYGVSWVRQAPGNGLEYIGFIGSGGFAYYASWAKSRSTITRNTNLNTVTLKMTSLTAADTATYFCARDDVGGGRSLDIWGPGTVVTVSS VL: NIVMTQTPASVEVAMGGTVIIKCQASQSISTYLSWYQQKPGQPPKLLIYSASTLASGVSSRFEGSGSGTQFTLTISGVQCADAATYYCHQDYTSNNVDNTFGGGTEVVVK
6.16e-05

---
koff lookup needed for 8F5 (antibody, V domains shown) VH: QSVKESEGGLFKPTDTLTLTCTVSGFSLSSYPISWVRQAPGNGLEWIGYITSEYGVAYYATWAESRSTITRNTNLNTVTLKMTSLTAADTATYFCVRENPTYGYAYDAWGPGTLVTVSS VL: AYDLTQTPASVEAAVGGTVTINCQASESIGNELSWYQQKSGQPPKLLIYQASTLASGVPSRFKGSGSGTDFTLTISDLECADAATYYCAQGFSSSGVENVFGGGTEVVVK , thanks.
0.000316

What koff value was documented for this binder, 14E12 (antibody, V domains shown) VH: EVQLVESGGGLVRPGRSLRLSCAASGFTFSDYYMAWVRQAPTKGLEWVASISYDGDTTYYRDSVKGRFTISRDNARSSLYLQMDSLRSDDTANYFCTTDGTIPAGSWFAYWGQGTLVTVSS VL: DIQMTQSPASLSASLGETVTIECLASKNIYRNLAWYQQKPGKSPQFLISDASRLQDGVPSRFTGSDSGSQYSLKINSLQSEDVATYFCQQYHDYPYTFGAGTKLELK ?
0.000414

What value of measured koff is listed for 9B6 (antibody, V domains shown) VH: QSVKESEGGLFKPTDNLTLTCTVSGFSLSNYGVTWVRQAPGNGLEYIGFIGSGGSAYYASWAKSRSTITRNTNLNTVTLKMTSLTAADTATYFCARDDVGGGKSLDIWGPGTLVTVSS VL: NIVMTQTPASVEVAVGGTVVIKCQASQNIGDYLSWYQQKPGQRPKLLIYSASTLASGVPSRFKGSGSGTQFTLTISDLECADAATYYCHQDYTSNDVENTFGGGTEVVVK ?
0.000178

For the binder shown here, 10C5 (antibody, V domains shown) VH: QSLEESGGGLVKPTDTLTLTCTVSGFSLSSYGVTWVRQAPGRGLEWIGYITSNYGVSYYASWAKSRSTITRNTNLNTVTLKMTSLTAADTATYFCARENPDYGYAYDAWGPGTLVTVSV VL: AYDMTQTPASLEAAVGGTVTINCQASESISNELSWYQQKPGQPPDLLIYYASTLASGVPSRFKGSGSGTEFTLTISDLECADAATYYCAQGFGSSGVENVFGGGTEVVVK , give the reported koff.
0.000126
